System: OVCAR-3 ovarian
Assay: NCI-60 one-dose screen, 48 h
Settings: 10 µM unless noted
Compounds without any hit were thinned out: in the full panel of roughly 83,000, 20% have a hit. Activity calls are given as the source filed them. Rule for the calls: active = growth percent below 10; inactive = the rest.
Use one of these outcomes when replying: true (1) = active, false (0) = inactive

Compound	Class assignment
C1CCC([PH+](C2CCCCC2)C2CCCCC2[PH+](C2CCCCC2)C2CCCCC2)CC1.O=C(C1[CH-]CCCC1)C1CCCC[N-]1.[Au] (stereo not drawn)	true (1)
COC(=O)C12CC(NC(=O)c3csc([C@@H](C[C@H](C(C)C)N(C)C(=O)[C@@H](NC(=O)[C@H]4CCCCN4C)C4CC4)OC(C)=O)n3)(C1)C2	true (1)

input: Kindly provide the recorded test outcome for the following compound: "COc1cc2c(c(OC)c1OC)-c1ccc([O-])c(=O)cc1[C@@H](NC(C)=O)CC2.COc1cc2c(c(OC)c1OC)-c1ccc([O-])c(=O)cc1[C@@H](NC(C)=O)CC2.[Cu+2]"
output: true (1)

input: Please let me know the test result on file for "O=C1C(N2CC2)=C(N2CC2)C(=O)C(N2CC2)=C1N1CC1" .
output: true (1)

input: // outcome(item) with item = "CC(=O)O[C@H](C[C@H](C(C)C)N(C)C(=O)[C@@H](NC(=O)[C@H]1CCCCN1C)C(C)C)c1nc(C(=O)N[C@@H](Cc2ccccc2)C[C@H](C)C(=O)O)c(C)s1"
output: false (0)

input: Tell me the recorded outcome of this test for "Nc1nnnc2nc[nH]c12" .
output: false (0)

input: Give the logged outcome of this assay for the following compound: "O=C(Nc1ccc(O)cc1)C(Cl)(Cl)Cl"
output: false (0)

input: Which outcome was assigned to "Cc1ccc(N2COOC3(OOC2)C2CC4CC(C2)CC3C4)cc1" in this test?
output: false (0)

* * *

Tested on: EKVX NSCLC
Test: NCI-60 one-dose screen, 48 h (100 = growth as untreated, 0 = no growth, -100 = all killed)
Conditions: 10 µM unless noted
About 83,000 compounds went through this panel and 20% of them were active in at least one assay; those are over-represented in the sample as a whole.
Quantity measured: growth (%)
Value expressed in %; do not type the unit.

Before answering, review these 5 worked examples.
Compound	growth [%]
CCCCN1CCCC[C@@H]1C(=O)N[C@H](C(=O)N(C)[C@H](C[C@@H](OC(C)=O)c1nc(C(=O)NC2CCC(C(=O)OC)CC2)cs1)C(C)C)C(C)C (some centres not stated)	34.8
C=CCCCN=C=S	92.7
C[C@]12CCc3nc(Nc4ccccc4F)sc3C1=CC[C@@H]1[C@@H]2CC[C@]2(C)C(=O)CC[C@@H]12	94.4
[Cl][Hg][c]1cc(Br)cc(Br)c1	80
CC(=O)Oc1ccccc1C(=O)NCCC[Se]C#N	44.5

input: Dear colleague, please send me the reported growth for "CC(C)(N)Cc1ccccc1" when you can.
output: 99.1

input: Please list growth recorded for the compound "CC1=C(CNO)C2=C(C)C3(CC3)[C@@](C)(O)C(=O)C2=C1"
output: 9.85

input: // fetch growth given entry O=C(CC1(O)C(=O)Nc2ccc(Br)cc21)c1ccc(C(=O)NCC2CCC3(CC2)OOC2(CCCCC2)OO3)cc1 (configuration not stated)
output: -36.4

input: Check the records and state growth for Cc1ccc2c(C(C[N+](=O)[O-])c3cccs3)c(-c3ccccc3)[nH]c2c1 (configuration not stated)
output: 35.9
